tested on: T-47D breast; test: NCI tumour cell line growth inhibition, 48 h
This section presents compounds with their documented TGI values.

[
  {
    "COMPOUND": "Oc1ccccc1C1=NOC(c2ccc(C(F)(F)F)cc2)C1 (configuration not stated)",
    "TGI": "> 38.1 µM"
  },
  {
    "COMPOUND": "O=C(O)CCc1c2ccc(=O)c(O)c-2oc2c(O)c(O)ccc12",
    "TGI": "> 100 µM"
  },
  {
    "COMPOUND": "CCC(=O)Nc1ccccc1C#C/C=C\\C#Cc1ccccc1C(F)(F)F",
    "TGI": "> 38.9 µM"
  },
  {
    "COMPOUND": "Nc1c(N2CCOCC2)c(=O)nc2[nH]/c(=C\\c3ccccc3)c(=O)n12",
    "TGI": "> 100 µM"
  },
  {
    "COMPOUND": "CCN(CC)CCCNc1nc(=O)[nH]c(C)c1C(=O)Nc1ccc2c(c1)c1ccccc1n2CC",
    "TGI": "> 100 µM"
  },
  {
    "COMPOUND": "Cc1[nH]nc2c1N=C(c1ccccc1F)c1cc(C(N)=O)ccc1N2",
    "TGI": "> 15.8 µM"
  },
  {
    "COMPOUND": "CN1C=Cc2nccc3cc4c(c1c23)OCO4",
    "TGI": "> 27.1 µM"
  },
  {
    "COMPOUND": "COc1ccc(/C=C2/NC(=S)N=C2Cl)cc1",
    "TGI": "> 100 µM"
  },
  {
    "COMPOUND": "CC1(C)C(=O)/C=C\\C(=O)C(C)(C)C(=O)/C=C\\C(=O)C(C)(C)C(=O)/C=C\\C(=O)C(C)(C)C(=O)/C=C\\C1=O",
    "TGI": "> 100 µM"
  },
  {
    "COMPOUND": "COc1cccc2c1C(=O)c1c(O)c3c(c(O)c1C2=O)C[C@@](O)(C(=O)CO)CC3OC1CC(O)C(O)C(C)O1 (some centres not stated)",
    "TGI": "5.44 µM"
  },
  {
    "COMPOUND": "Cc1nc2ccc(NC3OC(CO)C(O)C(O)C3O)cc2c(=O)n1-c1ccccc1 (configuration not stated)",
    "TGI": "> 100 µM"
  },
  {
    "COMPOUND": "COc1cc2ncnc(Nc3ccc4c(cnn4Cc4ccccc4)c3)c2cc1OC",
    "TGI": "> 25 µM"
  },
  {
    "COMPOUND": "Cc1ccc(N=NN(C)C(=O)C(C)N)cc1 (configuration not stated)",
    "TGI": "> 100 µM"
  },
  {
    "COMPOUND": "Cn1c2ccccc2c2c3[nH][nH]c(=O)c3c3c4ccccc4[nH]c3c21",
    "TGI": "13.4 µM"
  },
  {
    "COMPOUND": "CC(=O)c1cccc(NC(=O)C(=O)C(c2cnc3ccc([N+](=O)[O-])cc3n2)[N+](=O)[O-])c1 (configuration not stated)",
    "TGI": "> 100 µM"
  },
  {
    "COMPOUND": "COc1ccc2c(Cl)cc(NC(=O)Nc3c(C)cccc3C)nc2c1",
    "TGI": "> 100 µM"
  },
  {
    "COMPOUND": "CN(C)C=NCCN1CCOCC1",
    "TGI": "> 100 µM"
  },
  {
    "COMPOUND": "O=c1oc2ccc(Cl)cc2cc1-c1cn2ccccc2n1",
    "TGI": "> 100 µM"
  },
  {
    "COMPOUND": "O=C(Cc1nc2ncccc2[nH]c1=O)c1c[nH]c2ccccc12",
    "TGI": "34.5 µM"
  },
  {
    "COMPOUND": "COc1ccc(/C=C2\\Sc3nnc(CNc4ccc(Cl)cc4)n3N=C2c2cc(F)c(Cl)cc2Cl)cc1OC",
    "TGI": "> 100 µM"
  },
  {
    "COMPOUND": "O=[n+]1c2ccccc2n([O-])c2cc(Cl)ccc21",
    "TGI": "11.7 µM"
  },
  {
    "COMPOUND": "O=C1Nc2ccccc2/C1=C\\c1nc(C2CCN(S(=O)(=O)c3ccc(F)cc3)CC2)n2ccccc12",
    "TGI": "> 100 µM"
  }
]

---

Recorded measurements of TGI, one per entry
tested on: SF-539 CNS; experiment: NCI tumour cell line growth inhibition, 48 h
MEASURED_ENDPOINT: TGI

[
  {
    "COMPOUND": "C#CC1(O)c2ccccc2C(=O)c2ccccc21",
    "TESTED_TARGET": "SF-539 CNS",
    "MEAS_VALUE": "> 100 µM"
  },
  {
    "COMPOUND": "O=C(Nc1cc(Cl)cc(Cl)c1)/C(Cc1nc2ccccc2[nH]c1=O)=N/NC(=O)c1ccncc1",
    "TESTED_TARGET": "SF-539 CNS",
    "MEAS_VALUE": "> 100 µM"
  },
  {
    "COMPOUND": "COC(=O)[C@]1(c2cc3ccccc3[nH]2)CC2CN(CC(=O)N(C)OC)C1CC2(OC)OC (stereo partly specified)",
    "TESTED_TARGET": "SF-539 CNS",
    "MEAS_VALUE": "> 100 µM"
  },
  {
    "COMPOUND": "COC(=O)C(CBr)CBr",
    "TESTED_TARGET": "SF-539 CNS",
    "MEAS_VALUE": "13.2 µM"
  },
  {
    "COMPOUND": "COC(=O)C1=CN(C2CCCCC2)C2(c3ccccc3)c3ccccc3C(=O)OC(=O)C12 (stereo unspecified)",
    "TESTED_TARGET": "SF-539 CNS",
    "MEAS_VALUE": "> 100 µM"
  },
  {
    "COMPOUND": "SCc1ccc(CS)s1",
    "TESTED_TARGET": "SF-539 CNS",
    "MEAS_VALUE": "> 100 µM"
  },
  {
    "COMPOUND": "COC(=O)C1=C(C(=O)OC)SC(=C2S[C@@H]3[C@@H]4C[C@H]([C@@H]3S2)[C@H]2C(=O)OC(=O)[C@@H]42)S1",
    "TESTED_TARGET": "SF-539 CNS",
    "MEAS_VALUE": "> 100 µM"
  },
  {
    "COMPOUND": "OCCNCCCOc1ccc2ncnc(Nc3ccc(Oc4cccc(C(F)(F)F)c4)c(Cl)c3)c2c1",
    "TESTED_TARGET": "SF-539 CNS",
    "MEAS_VALUE": "3.07 µM"
  },
  {
    "COMPOUND": "CCN(CC)C(=O)N1CCN(C=S)CC1",
    "TESTED_TARGET": "SF-539 CNS",
    "MEAS_VALUE": "> 100 µM"
  },
  {
    "COMPOUND": "NCCCCC(=O)c1cccnc1",
    "TESTED_TARGET": "SF-539 CNS",
    "MEAS_VALUE": "> 100 µM"
  },
  {
    "COMPOUND": "Nc1nc2ccc(OCC(O)CN3CCCCC3)cc2[n+]([O-])n1 (stereo unspecified)",
    "TESTED_TARGET": "SF-539 CNS",
    "MEAS_VALUE": "> 100 µM"
  },
  {
    "COMPOUND": "O=[N+]([O-])c1ccc(/C=C/c2csnn2)cc1",
    "TESTED_TARGET": "SF-539 CNS",
    "MEAS_VALUE": "> 100 µM"
  },
  {
    "COMPOUND": "COC1C(OC(=O)/C=C/C=C/C=C/C=C\\C(=O)O)CCC2(CO2)C1C1(C)OC1CC=C(C)C (stereo unspecified)",
    "TESTED_TARGET": "SF-539 CNS",
    "MEAS_VALUE": "> 200 µM"
  },
  {
    "COMPOUND": "CCCCN(CCCC)CCC(O)c1cc2c(Cl)cc(Cl)cc2c2cc(C(F)(F)F)ccc12 (stereo unspecified)",
    "TESTED_TARGET": "SF-539 CNS",
    "MEAS_VALUE": "30.1 µM"
  },
  {
    "COMPOUND": "CC(C)C(C/C=C1/CC(CO)(COC(=O)c2ccccc2)OC1=O)C(C)C (stereo unspecified)",
    "TESTED_TARGET": "SF-539 CNS",
    "MEAS_VALUE": "16.1 µM"
  },
  {
    "COMPOUND": "Cc1cc2nc3cc(C)c(N)cc3[n+](-c3ccccc3)c2cc1N",
    "TESTED_TARGET": "SF-539 CNS",
    "MEAS_VALUE": "> 100 µM"
  },
  {
    "COMPOUND": "CCOC(=O)C1=C(C)N(NC(N)=O)C(C)(O)C12CCOC2=O (stereo unspecified)",
    "TESTED_TARGET": "SF-539 CNS",
    "MEAS_VALUE": "> 100 µM"
  },
  {
    "COMPOUND": "COC1=CC(=O)c2c(c(COP(=O)(N(C)CCBr)N(C)CCBr)cn2C)C1=O",
    "TESTED_TARGET": "SF-539 CNS",
    "MEAS_VALUE": "0.0678 µM"
  },
  {
    "COMPOUND": "Cc1[nH]nc2c1N=C(c1ccccc1F)c1cc(C(N)=O)ccc1N2",
    "TESTED_TARGET": "SF-539 CNS",
    "MEAS_VALUE": "3.54 µM"
  },
  {
    "COMPOUND": "CC12CO[C@@](C)(CC(S(=O)(=O)c3ccccc3)C1)O2 (stereo partly specified)",
    "TESTED_TARGET": "SF-539 CNS",
    "MEAS_VALUE": "> 100 µM"
  },
  {
    "COMPOUND": "C[C@@H]1C2=CC[C@@]3(C)C(CCC3[C@H](C)[C@H]3C[C@@]4(C)O[C@@](c5cccnc5)(O3)OC4(C)C)[C@@H]2C2OC2[C@@]12CCC(=O)O2 (stereo partly specified)",
    "TESTED_TARGET": "SF-539 CNS",
    "MEAS_VALUE": "> 100 µM"
  }
]
